Every entry's value here was drawn from the RNAGym collection of RNA variant scans (doi:10.7554/elife.80360).

B1: Hairpin Ribozyme (parent)
chain: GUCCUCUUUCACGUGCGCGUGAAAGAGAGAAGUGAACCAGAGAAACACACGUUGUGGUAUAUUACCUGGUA

Variants of: B1
Protocol text: self-cleavage, relative activity (ratio to wild type); higher = more cleavage; co-transcriptional
As shown below, each of these variants has a reported self-cleavage value.

Please review the entries below; each comes with its answer.
>  <Mut>
G51A A64U

>  <self-cleavage>
0.22

$$$$
>  <Mut>
C10A C50U

>  <self-cleavage>
0.349

$$$$

Kindly note the recorded self-cleavage for G57C U70A , which is 0.184

Kindly note the recorded self-cleavage for A47G A59C , which is 0.134

Kindly note the recorded self-cleavage for U7G A36G , which is 0.828

Kindly note the recorded self-cleavage for C16A C38G , which is 0.114

Kindly note the recorded self-cleavage for U2A G57A , which is 0.136

Kindly note the recorded self-cleavage for U60C U63C , which is 0.314

Kindly note the recorded self-cleavage for C50U A61C , which is 0.181

Kindly note the recorded self-cleavage for G19C C66G , which is 0.245

Kindly note the recorded self-cleavage for G42U U62G , which is 0.22
